As shown below, each of these molecules has a reported Plant response rating, Rice value.
Test system: rice (Oryra sativa)
assay-summary: Test B flooded paddy test
Assay type: in vivo
condition-notes: Flood, 250 g ai/ha; 0 to 100 scale where 0 is no effect and 100 is complete control; 13 to 15 d
Method: Plant species in the flooded paddy test selected from rice (Oryra sativa), sedge, umbrella (small-flower umbrella sedge, Cyperus difformis), ducksalad (Heteranthera limosa), and barnyardgrass (Echinochloa crus-galli) were grown to the 2-leaf stage for testing. […] Treated plants and controls were maintained in a greenhouse for 13 to 15 d, after which time all species were compared to controls and visually evaluated. […]
Answer as a number with no unit attached.

Example results:
molecule: COc1ccc(N2CC(c3cccc(C(F)(F)F)c3)C(C(=O)Nc3ccccc3F)C2=O)cc1 (centres unmarked)
readout-type: Plant response rating, Rice
meas-value: 0
//
molecule: O=C1NCC(c2cc(F)cc(Cl)c2)C1C(=O)Nc1ccccc1F (centres unmarked)
readout-type: Plant response rating, Rice
meas-value: 0
//
molecule: Cc1ccc(C2CNC(=O)C2C(=O)Nc2ccccc2F)cc1C(F)(F)F (racemic)
readout-type: Plant response rating, Rice
meas-value: 0
//
molecule: O=C1NCC(c2cc(C(F)(F)F)cc(C(F)(F)F)c2)C1C(=O)Nc1ccccc1F (centres unmarked)
readout-type: Plant response rating, Rice
meas-value: 20
//
molecule: CN1CC(c2cccc(Br)c2)C(C(=O)Nc2cccc(F)c2F)C1=O (centres unmarked)
readout-type: Plant response rating, Rice
meas-value: 0

Dear colleague, please send me the reported Plant response rating, Rice for CN1CC(c2cc(F)cc(F)c2)C(C(=O)Nc2cccc3c2CCC3)C1=O (centres unmarked) when you can.
15

Dear colleague, please send me the reported Plant response rating, Rice for CN1CC(c2ccc(Cl)cc2)C(C(=O)Nc2cccc(F)c2F)C1=O (centres unmarked) when you can.
0

Dear colleague, please send me the reported Plant response rating, Rice for Cc1ccc(C2CN(C)C(=O)C2C(=O)Nc2ccccc2F)cc1 (centres unmarked) when you can.
10

###

Test system: barnyardgrass (Echinochloa crus-galli)
assay-summary: Test B flooded paddy test
Assay type: in vivo
condition-notes: Echinochloa crus-galli, 250 g ai/ha, Flood; 0 to 100 scale where 0 is no effect and 100 is complete control; read-out: Barnyardgrass plant response rating
Would you please tag the item MET when its pest or weed control at 250 g/ha is 60% or above, and NOT MET when it is below?

Would you please look over these solved cases?
molecule: Cc1ccc([C@H]2CCN(C)C(=O)[C@@H]2C(=O)Nc2cccc(Cl)c2F)cc1 [Compound 1223]
label: MET
//
molecule: Cc1c(F)cccc1NC(=O)[C@H]1C(=O)NC[C@@H]1c1cc(F)c(F)c(F)c1 [Compound 1125]
label: MET
//
molecule: O=C1NC[C@H](c2ccc(C(F)(F)F)cc2)C1C(=O)Nc1c(F)cccc1CO (stereo partly shown) [Compound 1243]
label: NOT MET
//
molecule: COc1cc([C@H]2CN(C)C(=O)[C@@H]2C(=O)Nc2ccccc2SC)cc(OC)c1OC [Compound 1218]
label: NOT MET
//
molecule: Cc1cc(F)cc([C@H]2CNC(=O)[C@@H]2C(=O)Nc2cccc(F)c2C)c1 [Compound 1308]
label: MET
//
molecule: CN1C[C@H](c2csc3c2CCC3)[C@@H](C(=O)Nc2ccccc2F)C1=O [Compound 1277]
label: NOT MET
//
molecule: CSc1ccccc1NC(=O)[C@H]1C(=O)NC[C@@H]1c1cc(F)c(F)c(F)c1 [Compound 1124]
label: NOT MET
//
molecule: COc1cc([C@H]2CN(C)C(=O)[C@@H]2C(=O)Nc2ccccc2S(C)(=O)=O)ccc1F [Compound 1302]
label: NOT MET

State whether the measured pest or weed control at 250 g/ha reaches 60%, counting equality as reaching it, for CN1CC[C@H](c2ccccc2)[C@@H](C(=O)Nc2ccccc2F)C1=O [Compound 1032]
NOT MET

State whether the measured pest or weed control at 250 g/ha reaches 60%, counting equality as reaching it, for O=C1NC[C@H](c2ccc3c(c2)OCO3)[C@H]1C(=O)Nc1cccc(F)c1C(F)(F)F [Compound 1127]
NOT MET

State whether the measured pest or weed control at 250 g/ha reaches 60%, counting equality as reaching it, for CON1CC[C@H](c2cccc(C(F)(F)F)c2)[C@@H](C(=O)Nc2cccc(F)c2F)C1=O [Compound 1169]
NOT MET

###

Tested on: blackgrass (Alopecurus myosuroides)
assay-summary: Test A postemergence
Format: in vivo
condition-notes: 500 g ai/ha, postemergence; 0 to 100 scale, 0 no effect, 100 complete control
Description: […]
As shown below, each of these molecules has a reported Plant response rating, Blackgrass value.
Answer as a number with no unit attached.

molecule: COc1ccc(NC(=O)C2C(=O)NCC2c2ccc(F)c(F)c2)c(F)c1 (centres unmarked) [Compound 413]
tested-on: blackgrass (Alopecurus myosuroides)
meas-value: 0
//
molecule: O=C1NCC(c2cccc(F)c2)C1C(=O)Nc1cccc(F)c1F (racemic) [Compound 375]
tested-on: blackgrass (Alopecurus myosuroides)
meas-value: 70
//
molecule: Cc1c(F)ccc(NC(=O)C2C(=O)NCC2c2cccc(C(F)(F)F)c2)c1F (centres unmarked) [Compound 463]
tested-on: blackgrass (Alopecurus myosuroides)
meas-value: 70
//
molecule: Cc1cccc(C2CNC(=O)C2C(=O)Nc2ccccc2C(F)(F)F)c1 (racemic) [Compound 374]
tested-on: blackgrass (Alopecurus myosuroides)
meas-value: 50
//
molecule: O=C1NCC(c2ccccc2-c2ccccc2)C1C(=O)Nc1cccc(F)c1F (racemic) [Compound 379]
tested-on: blackgrass (Alopecurus myosuroides)
meas-value: 0
//
molecule: CCc1ccc(C2CNC(=O)C2C(=O)Nc2cccc(F)c2F)cc1 (centres unmarked) [Compound 467]
tested-on: blackgrass (Alopecurus myosuroides)
meas-value: 0
//
molecule: O=C1NCC(c2cccc(OCC(F)F)c2)C1C(=O)Nc1cccc(F)c1F (centres unmarked) [Compound 389]
tested-on: blackgrass (Alopecurus myosuroides)
meas-value: 0

For the next question, use this molecule.
Dear colleague, please send me the reported Plant response rating, Blackgrass for O=C(Nc1cccc(F)c1F)C1C(=S)NCC1c1cccc(C(F)(F)F)c1 (centres unmarked) [Compound 454] when you can.
50

###

As shown below, each of these compounds has a reported plant injury at 125 g/ha value.
System: wheat (Triticum aestivum)
assay-summary: Test A postemergence
Assay type: in vivo
condition-notes: Triticum aestivum, post-emergence, 240 h, 125 g ai/ha, postemergence; visual injury after approximately 10 d; 0 to 100 scale (0 no effect, 100 complete control); read-out: Plant response rating, Wheat
Kindly provide the numeric value in % only, without the unit symbol.

Example results:
structure-smiles: CCc1ccc([C@H]2CNC(=S)[C@@H]2C(=O)Nc2cccc(F)c2C)cc1
plant injury at 125 g/ha (%): 0
//
structure-smiles: O=C1NC[C@H](c2ccc3c(c2)OCO3)[C@H]1C(=O)Nc1ccccc1F
plant injury at 125 g/ha (%): 0
//
structure-smiles: CN1C[C@H](c2ccc(C(F)(F)F)cc2)[C@@H](C(=O)Nc2ccccc2C2CC2)C1=O
plant injury at 125 g/ha (%): 0

Dear colleague, please send me the reported plant injury at 125 g/ha for O=C1NC[C@H](c2ccc3c(c2)CCO3)[C@H]1C(=O)Nc1cccc(F)c1F when you can.
0

Dear colleague, please send me the reported plant injury at 125 g/ha for C=CCN1C[C@H](c2ccc(OC)c(F)c2)[C@@H](C(=O)Nc2ccccc2C(F)(F)F)C1=O when you can.
0

Dear colleague, please send me the reported plant injury at 125 g/ha for O=C1NC[C@H](c2cscn2)[C@H]1C(=O)Nc1ccccc1F when you can.
0

###

Test system: blackgrass (Alopecurus myosuroides)
assay-summary: Test A postemergence
Format: in vivo
condition-notes: 125 g ai/ha, postemergence; visual rating after approx. 10 d, 0 to 100 scale (0 no effect, 100 complete control)
From the text: […]
readout-type: Plant response rating, Blackgrass
Answer as a number with no unit attached.

Dear colleague, please send me the reported Plant response rating, Blackgrass for O=C1NCC(c2cc(Cl)sc2Cl)C1C(=O)Nc1cccc(F)c1F (centres unmarked) when you can.
0

Dear colleague, please send me the reported Plant response rating, Blackgrass for Cc1ccc(C2CN(C)C(=O)C2C(=O)Nc2ccccc2C(F)(F)F)cc1 (centres unmarked) when you can.
40

###

System: corn (Zea mays)
assay-summary: Test A postemergence
Format: in vivo
condition-notes: Zea mays, post-emergence, 240 h, 125 g ai/ha, postemergence, visual injury rating after approximately 10 d; read-out: Corn plant response rating (0 to 100 scale, 0 no effect, 100 complete control)
readout-type: plant injury at 125 g/ha (%)
Kindly provide the numeric value in % only, without the unit symbol.

compound: CN1C[C@H](c2cccc(COC(F)F)c2)[C@@H](C(=O)Nc2cccc(F)c2F)C1=O
tested-on: corn (Zea mays)
meas-value: 70

compound: CN1C[C@H](c2cc(F)c(F)c(F)c2)[C@@H](C(=O)Nc2cccc(F)c2F)C1=O
tested-on: corn (Zea mays)
meas-value: 60

For the next question, use this compound.
Dear colleague, please send me the reported plant injury at 125 g/ha for O=C1NC[C@H](c2cc(F)c(C(F)(F)F)c(F)c2)[C@H]1C(=O)Nc1cccc(F)c1F when you can.
70
